assay: Cytotoxicity against human CEmx174 cells expressing GFP after 5 days by resazurin assay; assay type: cell-based
CC50 at 120 h values by entry

- COMPOUND: "COc1ccc(Oc2nc(CS(=O)(=O)c3cccc(Cl)c3)nc3ccsc23)cc1"
  RESULT_TYPE: "CC50 at 120 h"
  REPORTED_VALUE: "> 50 µM"
- COMPOUND: "COc1ccc(-c2nc(C(F)S(=O)(=O)c3cccc(Cl)c3)nc3ccsc23)cn1 (stereo not drawn)"
  RESULT_TYPE: "CC50 at 120 h"
  REPORTED_VALUE: "> 50 µM"
- COMPOUND: "O=S(=O)(Cc1nc(-c2ccnc(Cl)c2)c2sccc2n1)c1cccc(Cl)c1"
  RESULT_TYPE: "CC50 at 120 h"
  REPORTED_VALUE: "63 µM"
- COMPOUND: "O=S(=O)(Cc1nc(-c2ccc(F)nc2)c2sccc2n1)c1cccc(Cl)c1"
  RESULT_TYPE: "CC50 at 120 h"
  REPORTED_VALUE: "40 µM"
- COMPOUND: "COc1ccc(-c2nc(CSc3ccc(C(F)(F)F)cn3)nc3ccsc23)cn1"
  RESULT_TYPE: "CC50 at 120 h"
  REPORTED_VALUE: "> 50 µM"
- COMPOUND: "O=S(=O)(Cc1nc(-c2cccs2)c2sccc2n1)c1cccc(Cl)c1"
  RESULT_TYPE: "CC50 at 120 h"
  REPORTED_VALUE: "> 50 µM"
- COMPOUND: "COc1ccc(-c2nc(CSc3cccc(Br)c3)nc3ccsc23)cn1"
  RESULT_TYPE: "CC50 at 120 h"
  REPORTED_VALUE: "> 50 µM"

Given "COc1ccc(-c2nc(COc3cccc(Cl)c3)nc3ccsc23)cn1" , state its recorded CC50 at 120 h. > 50 µM

* * *

test system: Human immunodeficiency virus 1; assay: Antiviral activity against HIV-1 LAI infected in human CEMx174-LTR-GFP CG8 cells assessed as inhibition of viral replication after 5 days; type: functional, organism-based; details: Human immunodeficiency virus 1, LAI, 120 h
Response field label takes fulfilled when EC50 is strictly below 800 nM and not fulfilled in all other cases.

Before answering, review these 7 worked examples.
- COMPOUND: "COc1ccc(-c2nc(CS(=O)(=O)c3cccc(Cl)c3)nc3ccsc23)cc1"
  CATEGORY_LABEL: "fulfilled"
- COMPOUND: "O=S(=O)(Cc1nc(-c2ccc(Cl)nc2)c2sccc2n1)c1cccc(Cl)c1"
  CATEGORY_LABEL: "not fulfilled"
- COMPOUND: "COc1ccc(-c2nc(CSc3cccc(C(F)(F)F)c3)nc3ccsc23)cn1"
  CATEGORY_LABEL: "fulfilled"
- COMPOUND: "O=S(=O)(Cc1nc(-c2ccncc2)c2sccc2n1)c1cccc(Cl)c1"
  CATEGORY_LABEL: "fulfilled"
- COMPOUND: "O=S(=O)(Cc1nc(-c2ccc(F)nc2)c2sccc2n1)c1cccc(Cl)c1"
  CATEGORY_LABEL: "not fulfilled"
- COMPOUND: "COc1ccc(-c2nc(CSc3cccc(Cl)c3Cl)nc3ccsc23)cn1"
  CATEGORY_LABEL: "not fulfilled"
- COMPOUND: "COc1ccc(Oc2nc(CS(=O)(=O)c3cccc(Cl)c3)nc3ccsc23)cc1"
  CATEGORY_LABEL: "not fulfilled"

Okay, now this compound:
Consider COc1ccc(-c2nc(CC(O)c3cccc(Cl)c3)nc3ccsc23)cn1 (stereo not drawn) . Does its EC50 lie strictly below 800 nM? not fulfilled

# credit: ChEMBL document CHEMBL3352046
